assayedTarget: T1, Soluble recombinant human urokinase receptor (suPAR) (human, UniProt Q03405 23-299, limits assumed, biotinylated in the plate assays (sites not given))
T1 construct: Only called a soluble truncated form of the urokinase receptor; also called soluble uPAR; biotinylated suPAR
T1 sequence (Q03405 23-299 limits assumed): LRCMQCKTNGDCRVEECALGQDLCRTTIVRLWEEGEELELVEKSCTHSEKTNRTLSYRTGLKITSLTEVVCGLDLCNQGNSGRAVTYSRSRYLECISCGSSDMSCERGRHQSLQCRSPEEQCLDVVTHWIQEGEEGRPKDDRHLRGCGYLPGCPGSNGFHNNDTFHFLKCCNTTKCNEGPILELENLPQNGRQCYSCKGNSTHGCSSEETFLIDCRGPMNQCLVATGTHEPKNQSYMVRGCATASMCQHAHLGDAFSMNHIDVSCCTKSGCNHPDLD
assayName: competition with phage displaying peptide 25 for soluble uPAR
Square brackets hold non-standard residues; d marks the D form. Ends that are not written are not given here. 1Nal = N[C@@H](Cc1cccc2ccccc12)C(=O)O
Entries annotated with measured % Inhibition at 5 uM
I'd appreciate it if you included the unit after the number.

Some solved entries appear below for comparison.
AEST[1Nal]HHLSLGYMYTLN-NH2 (N-terminus assumed; SMILES CSCC[C@H](NC(=O)[C@H](Cc1ccc(O)cc1)NC(=O)CNC(=O)[C@H](CC(C)C)NC(=O)[C@H](CO)NC(=O)[C@H](CC(C)C)NC(=O)[C@H](Cc1c[nH]cn1)NC(=O)[C@H](Cc1c[nH]cn1)NC(=O)[C@H](Cc1cccc2ccccc12)NC(=O)[C@@H](NC(=O)[C@H](CO)NC(=O)[C@H](CCC(=O)O)NC(=O)[C@H](C)N)[C@@H](C)O)C(=O)N[C@@H](Cc1ccc(O)cc1)C(=O)N[C@H](C(=O)N[C@@H](CC(C)C)C(=O)N[C@@H](CC(N)=O)C(N)=O)[C@@H](C)O) [Analog 35] ... 94%
A[dE]STYHHLSLGYMYTLN-NH2 (N-terminus assumed; SMILES CSCC[C@H](NC(=O)[C@H](Cc1ccc(O)cc1)NC(=O)CNC(=O)[C@H](CC(C)C)NC(=O)[C@H](CO)NC(=O)[C@H](CC(C)C)NC(=O)[C@H](Cc1c[nH]cn1)NC(=O)[C@H](Cc1c[nH]cn1)NC(=O)[C@H](Cc1ccc(O)cc1)NC(=O)[C@@H](NC(=O)[C@H](CO)NC(=O)[C@@H](CCC(=O)O)NC(=O)[C@H](C)N)[C@@H](C)O)C(=O)N[C@@H](Cc1ccc(O)cc1)C(=O)N[C@H](C(=O)N[C@@H](CC(C)C)C(=O)N[C@@H](CC(N)=O)C(N)=O)[C@@H](C)O) [Analog 47] ... 61%
AESTYHHLS[dL]GYMYTLN-NH2 (N-terminus assumed; SMILES CSCC[C@H](NC(=O)[C@H](Cc1ccc(O)cc1)NC(=O)CNC(=O)[C@@H](CC(C)C)NC(=O)[C@H](CO)NC(=O)[C@H](CC(C)C)NC(=O)[C@H](Cc1c[nH]cn1)NC(=O)[C@H](Cc1c[nH]cn1)NC(=O)[C@H](Cc1ccc(O)cc1)NC(=O)[C@@H](NC(=O)[C@H](CO)NC(=O)[C@H](CCC(=O)O)NC(=O)[C@H](C)N)[C@@H](C)O)C(=O)N[C@@H](Cc1ccc(O)cc1)C(=O)N[C@H](C(=O)N[C@@H](CC(C)C)C(=O)N[C@@H](CC(N)=O)C(N)=O)[C@@H](C)O) [Analog 55] ... 80%

Now for the binder whose % Inhibition at 5 uM we want.
Q) Give % Inhibition at 5 uM for AESTYHHLSLGYMYTLN-NH2 (also called clone 25 peptide; analogs 3 and 4) [Peptide 25 (synthetic peptide of clone 25)]
A) 59%

Ref: patent US20040265797A1
